Target: Insulin receptor on differentiated 3T3-L1 adipocytes (UniProt P15208;P15208 P15208:28-748,P15208:753-1372)
Sequence (P15208 28-748, chain 1 of 2): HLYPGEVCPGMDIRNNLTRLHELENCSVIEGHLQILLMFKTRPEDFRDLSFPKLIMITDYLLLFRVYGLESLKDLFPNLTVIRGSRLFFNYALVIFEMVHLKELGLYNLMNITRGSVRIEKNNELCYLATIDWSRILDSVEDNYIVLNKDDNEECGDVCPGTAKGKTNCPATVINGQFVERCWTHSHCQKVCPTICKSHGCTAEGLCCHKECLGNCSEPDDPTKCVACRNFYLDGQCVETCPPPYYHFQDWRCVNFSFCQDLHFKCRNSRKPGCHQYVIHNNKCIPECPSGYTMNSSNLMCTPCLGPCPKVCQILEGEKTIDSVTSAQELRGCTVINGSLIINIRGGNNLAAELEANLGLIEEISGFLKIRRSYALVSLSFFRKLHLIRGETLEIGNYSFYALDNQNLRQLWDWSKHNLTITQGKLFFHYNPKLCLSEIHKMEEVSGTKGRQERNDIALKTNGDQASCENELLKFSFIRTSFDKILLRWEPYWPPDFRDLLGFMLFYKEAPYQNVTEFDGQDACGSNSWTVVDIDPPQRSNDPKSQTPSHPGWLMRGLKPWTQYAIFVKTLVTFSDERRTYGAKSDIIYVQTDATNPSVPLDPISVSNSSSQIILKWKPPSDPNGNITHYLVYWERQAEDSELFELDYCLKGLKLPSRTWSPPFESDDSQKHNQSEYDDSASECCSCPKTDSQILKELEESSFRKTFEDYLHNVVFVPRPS
Sequence (P15208 753-1372, chain 2 of 2): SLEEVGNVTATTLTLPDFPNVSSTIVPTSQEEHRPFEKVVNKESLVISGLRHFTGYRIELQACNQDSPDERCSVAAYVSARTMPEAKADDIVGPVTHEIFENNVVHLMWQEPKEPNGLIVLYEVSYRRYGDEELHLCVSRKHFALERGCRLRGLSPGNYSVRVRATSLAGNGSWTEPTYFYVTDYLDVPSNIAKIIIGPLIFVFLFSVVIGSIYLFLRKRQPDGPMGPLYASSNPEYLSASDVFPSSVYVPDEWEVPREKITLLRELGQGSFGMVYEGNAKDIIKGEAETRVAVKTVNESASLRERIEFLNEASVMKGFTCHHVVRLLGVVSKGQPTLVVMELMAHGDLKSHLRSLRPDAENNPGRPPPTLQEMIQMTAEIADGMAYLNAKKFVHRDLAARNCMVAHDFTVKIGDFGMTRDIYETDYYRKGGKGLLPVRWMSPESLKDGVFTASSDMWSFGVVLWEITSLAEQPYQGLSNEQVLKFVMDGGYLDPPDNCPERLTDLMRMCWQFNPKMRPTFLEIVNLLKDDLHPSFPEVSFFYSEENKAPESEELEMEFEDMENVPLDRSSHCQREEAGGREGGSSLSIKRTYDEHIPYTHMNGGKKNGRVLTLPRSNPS
Experiment: cell_activity; glucose uptake in differentiated 3T3-L1 adipocytes; insulin 9.6 nM
Conditions: chain copies: 2
property: EC50 (nM)
Report as a plain number; the unit nM is understood.

Query: Need EC50, item CCUGGTGTTTAGACGACCTATAGGTTAGG (ssDNA, CmeCmeUmeGGPGZPLPAmeGAmeCfGAmeCfCmePAmePAGGmePPAmeGmeGme-idT; me = 2'-OMe, f = 2'-F, P = naphthyl-dU, Z = benzyl-dU, L = C3 linker, 3' idT [2'-OMe at 1,2,3,11,13,16,18,20,24,27,28,29; 2'-F at 14,17; naphthyl-dU at 6,9,10,19,21,25,26; benzyl-dU at 8; C3 linker (left out) between 9 and 10; 3' idT (left out) after 29]) [A48m combi 3]
Response: 16.5
